Biological target: recombinant human NF-kappaB-inducing kinase (NIK/MAP3K14) (Homo sapiens)
Experiment: Inhibition of auto-phosphorylation of recombinant human NIK/MAP3K14 activity (AlphaScreen), Biological Assay A
Assay type: biochemical
Conditions: averaged values over all measurements on all batches
PROPERTY: log10 of IC50 (log10 of the value in nM)
// units: nM (pre-log); metric: IC50; scale: log10

CNC(=O)c1ccc(OC(C)C)c(Nc2nccc(-c3cc(C#N)c4c(c3)[C@@](C)(CO)CN4)n2)c1 yielded log10 of IC50 of 0.74

C[C@]1(CO)CNc2c(C#N)cc(-c3ccnc(Nc4cc(C#N)ccc4OCCO)n3)cc21 yielded log10 of IC50 of 0.11

COc1cc(C(=O)N2CC3(CC(O)C3)C2)c(Cl)cc1Nc1nccc(-c2cc(C#N)c3c(c2)C(C)(C)CN3)n1 yielded log10 of IC50 of 0.93

COCCCc1ccc(C#N)cc1Nc1nccc(-c2cc(C#N)c3c(c2)[C@@](C)(CO)CN3)n1 yielded log10 of IC50 of 0.60

CC(=O)OC[C@@]1(C)CNc2c(C#N)cc(-c3ccnc(Nc4cc(C#N)ccc4OCC4CC4)n3)cc21 yielded log10 of IC50 of 2.40

COCCOc1ccc(P(C)(C)=O)cc1Nc1nccc(-c2cc(C#N)c3c(c2)[C@@](C)(CO)CN3)n1 yielded log10 of IC50 of 3.40

CC1(CO)CNc2c(C#N)cc(-c3ccnc(Nc4ccc(OC5CCOCC5)c(C(F)(F)F)c4)n3)cc21 (stereo not shown) yielded log10 of IC50 of 1.57

----------
Exercise: for every item that follows, state its recorded melting point.
Output spec: scalar in °C, unitless text.

Cc1ccc(C#N)cc1Nc1nccc(-c2cc(C#N)c3c(c2)[C@@](C)(COC(=O)CN)CN3)n1 yielded melting point of 290

COCCOc1ccc(C#N)cc1Nc1nccc(-c2cc(C#N)c3c(c2)[C@@](C)(COC(C)=O)CN3)n1 yielded melting point of 158

COc1ccc(C(F)(F)F)cc1Nc1nccc(-c2cc(C#N)c3c(c2)C(C)(CO)CN3)n1 (stereo not shown) yielded melting point of 224

C[C@]1(CO)CNc2c(C#N)cc(-c3ccnc(Nc4cc(C#N)ccc4CN4CCOCC4)n3)cc21 yielded melting point of 238

CC1(CO)CNc2c(C#N)cc(-c3ccnc(Nc4cc(C#N)ccc4Cl)n3)cc21 (stereo not shown) yielded melting point of 274

C[C@]1(CO)CNc2c(C#N)cc(-c3ccnc(Nc4cc(C#N)ccc4CCCCN)n3)cc21 yielded melting point of 134

[2H]C([2H])([2H])N1CCN(C(=O)c2cc(C#N)cc(Nc3nccc(-c4cc(C#N)c5c(c4)[C@@](C)(CO)CN5)n3)c2C)CC1 yielded melting point of 297

----------
Target: recombinant human NF-kappaB-inducing kinase (NIK/MAP3K14) (Homo sapiens, UniProt Q99558)
Sequence (Q99558 whole entry): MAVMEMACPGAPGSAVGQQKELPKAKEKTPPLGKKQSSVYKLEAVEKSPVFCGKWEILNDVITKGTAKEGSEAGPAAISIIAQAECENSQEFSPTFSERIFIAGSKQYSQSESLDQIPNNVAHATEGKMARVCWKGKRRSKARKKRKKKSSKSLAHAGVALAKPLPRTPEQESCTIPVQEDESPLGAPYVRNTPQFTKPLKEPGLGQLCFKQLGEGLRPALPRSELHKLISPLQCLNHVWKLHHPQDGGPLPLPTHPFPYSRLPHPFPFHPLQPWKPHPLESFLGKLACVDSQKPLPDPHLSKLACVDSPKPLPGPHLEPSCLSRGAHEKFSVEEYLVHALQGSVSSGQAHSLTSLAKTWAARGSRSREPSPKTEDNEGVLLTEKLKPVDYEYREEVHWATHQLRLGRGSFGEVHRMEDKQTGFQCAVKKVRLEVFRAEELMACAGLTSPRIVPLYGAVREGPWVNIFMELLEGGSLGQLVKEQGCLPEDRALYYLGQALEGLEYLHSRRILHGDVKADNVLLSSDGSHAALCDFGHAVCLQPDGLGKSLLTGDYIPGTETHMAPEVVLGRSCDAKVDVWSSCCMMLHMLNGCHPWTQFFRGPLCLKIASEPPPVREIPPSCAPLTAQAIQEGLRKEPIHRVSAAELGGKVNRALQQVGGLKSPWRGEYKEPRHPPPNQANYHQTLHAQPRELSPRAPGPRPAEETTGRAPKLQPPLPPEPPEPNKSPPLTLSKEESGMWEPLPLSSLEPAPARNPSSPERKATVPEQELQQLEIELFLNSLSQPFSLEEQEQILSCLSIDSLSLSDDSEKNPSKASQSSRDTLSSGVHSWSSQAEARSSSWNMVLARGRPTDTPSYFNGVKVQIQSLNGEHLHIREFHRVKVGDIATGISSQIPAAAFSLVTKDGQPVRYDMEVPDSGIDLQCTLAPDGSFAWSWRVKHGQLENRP
Test: Inhibition of auto-phosphorylation of recombinant human NIK/MAP3K14 activity (AlphaScreen), Biological Assay A
Format: biochemical
Details: averaged values over all measurements on all batches
PROPERTY: IC50
Kindly report the value followed by its unit.

Cc1ccc(CNC2CC2)cc1Nc1nccc(-c2cc(C#N)c3c(c2)[C@@](C)(CO)CN3)n1 yielded IC50 of 3.6 nM

CC(C)Oc1ccc(Cl)cc1Nc1nccc(-c2cc(C#N)c3c(c2)C(C)(C)CN3)n1 yielded IC50 of 403 nM

Cc1c(Nc2nccc(-c3cc(C#N)c4c(c3)[C@@](C)(CO)CN4)n2)cccc1C(=O)N1CCN(C2CC2)CC1 yielded IC50 of 5.3 nM

Cc1ccc(CO)cc1Nc1nccc(-c2cc(C#N)c3c(c2)C(C)(CO)CN3)n1 (stereo not drawn) yielded IC50 of 1.5 nM

Cc1ccc(C(=O)N2CCN(C)CC2)cc1Nc1nccc(-c2cc(C#N)c3c(c2)[C@@](C)(CO)CN3)n1 yielded IC50 of 20.4 nM

COc1cc(S(C)(=O)=O)c(F)cc1Nc1nccc(-c2cc(C#N)c3c(c2)C(C)(C)CN3)n1 yielded IC50 of 9.1 nM

C[C@]1(CO)CNc2c(C#N)cc(-c3ccnc(Nc4ccc(S(C)(=O)=O)cc4CCC4CC4)n3)cc21 yielded IC50 of 4.3 nM

Cc1ccc(C#N)cc1Nc1nccc(-c2cc(C#N)c3c(c2)[C@@](C)(COC(=O)CN2CCOCC2)CN3)n1 yielded IC50 of 19.9 nM

CNC(=O)c1cc(Nc2nccc(-c3cc(C#N)c4c(c3)[C@@](C)(CO)CN4)n2)c(C)cc1F yielded IC50 of 3.5 nM

Cc1c(Nc2nccc(-c3cc(C#N)c4c(c3)[C@@](C)(CO)CN4)n2)cccc1C(=O)N1CC(C)OC(C)C1 (stereo partly drawn) yielded IC50 of 6.9 nM

CC(C)(O)COc1ccc(C#N)cc1Nc1nccc(-c2cc(C#N)c3c(c2)[C@@](C)(CO)CN3)n1 yielded IC50 of 4.1 nM

C[C@]1(CO)CNc2c(C#N)cc(-c3ccnc(Nc4cc(C#N)ccc4CN4CCOCC4)n3)cc21 yielded IC50 of 14.1 nM

C[C@]1(CO)CNc2c(C#N)cc(-c3ccnc(Nc4cc(C#N)ccc4OCC4CC4)n3)cc21 yielded IC50 of 9.2 nM

COCCOc1ccc(Cl)cc1Nc1nccc(-c2cc(C#N)c3c(c2)C(C)(CO)CN3)n1 (stereo not drawn) yielded IC50 of 20.9 nM

Cc1cc(P(C)(C)=O)c(Cl)cc1Nc1nccc(-c2cc(C#N)c3c(c2)[C@@](C)(CO)CN3)n1 yielded IC50 of 1.7 nM

----------
Target: recombinant human NF-kappaB-inducing kinase (NIK/MAP3K14) (Homo sapiens, UniProt Q99558)
Assay: Inhibition of auto-phosphorylation of recombinant human NIK/MAP3K14 activity (AlphaScreen), Biological Assay A
Format: biochemical
Conditions: averaged values over all measurements on all batches
Exercise: for every item that follows, state its recorded IC50.
Output spec: scalar in nM, unitless text.

CN(C)Cc1cc(Nc2nccc(-c3cc(C#N)c4c(c3)[C@@](C)(CO)CN4)n2)ccc1C1CCOCC1 yielded IC50 of 2.6

Cc1cc(Br)c(Cl)cc1Nc1nccc(-c2cc(C#N)c3c(c2)C(C)(CO)CN3)n1 (stereo not shown) yielded IC50 of 49

CC1(CO)CNc2c(C#N)cc(-c3ccnc(Nc4cc(Cl)ccc4OC4CCN(C5CC5)CC4)n3)cc21 (stereo not shown) yielded IC50 of 37.2

CNC(=O)c1ccc(C)c(Nc2ncnc(-c3cc(C#N)c4c(c3)[C@@](C)(CO)CN4)n2)c1 yielded IC50 of 6.9

COc1ccc(Cl)cc1Nc1ncc(F)c(-c2cc(C#N)c3c(c2)[C@@](C)(CO)CN3)n1 yielded IC50 of 8.9

Cc1ccc(CN2CCCC2)cc1Nc1nccc(-c2cc(C#N)c3c(c2)[C@@](C)(CO)CN3)n1 yielded IC50 of 49

CC(=O)NCCCOc1ccc(C#N)cc1Nc1nccc(-c2cc(C#N)c3c(c2)[C@@](C)(CO)CN3)n1 yielded IC50 of 5.1

CNC(=O)c1cc(Nc2nccc(-c3cc(C#N)c4c(c3)[C@@](C)(CO)CN4)n2)c(OC2CC2)cc1F yielded IC50 of 4.8

Cc1cc(CCN2CCOCC2)c(C#N)cc1Nc1nccc(-c2cc(C#N)c3c(c2)[C@@](C)(CO)CN3)n1 yielded IC50 of 1.8

CCN1CCN(Cc2cc(OC)c(Nc3nccc(-c4cc(C#N)c5c(c4)C(C)(C)CN5)n3)cc2Cl)CC1 yielded IC50 of 7.1

CN1CCCC(Oc2ccc(Cl)cc2Nc2nccc(-c3cc(C#N)c4c(c3)C(C)(C)CN4)n2)C1 (stereo not shown) yielded IC50 of 49

Cc1c(Nc2nccc(-c3cc(C#N)c4c(c3)[C@@](C)(CO)CN4)n2)cc(C#N)cc1C(=O)N1CCN(C)CC1 yielded IC50 of 6.6

Cc1ccc(OC2CCN(C)CC2)c(Nc2nccc(-c3cc(C#N)c4c(c3)[C@@](C)(CO)CN4)n2)c1 yielded IC50 of 3.5

CN1CCN(Cc2ccc(C#N)cc2Nc2nccc(-c3cc(C#N)c4c(c3)[C@@](C)(CO)CN4)n2)CC1 yielded IC50 of 4.3

CC(C)N1CCN(C(=O)Cc2ccc(Cl)cc2Nc2nccc(-c3cc(C#N)c4c(c3)C(C)(CO)CN4)n2)CC1 (stereo not shown) yielded IC50 of 15.5

COc1ccc(C(F)(F)F)cc1Nc1nccc(-c2cc(C#N)c3c(c2)C(C)(CO)CN3)n1 (stereo not shown) yielded IC50 of 51.3

COc1cc(C(=O)NC2CCC(O)C2)c(Cl)cc1Nc1nccc(-c2cc(C#N)c3c(c2)C(C)(C)CN3)n1 (stereo not shown) [Compound 116] yielded IC50 of 6.8

Cc1ccc(C#N)cc1Nc1nccc(-c2cc(C#N)c3c(c2)[C@@](C)(COC(=O)C(C)C)CN3)n1 yielded IC50 of 112

Cc1ccc(C#N)cc1Nc1nccc(-c2cc(C#N)c3c(c2)[C@@](C)(COC(=O)[C@H](N)Cc2ccccc2)CN3)n1 yielded IC50 of 51.3

CCCCCc1cc(S(C)(=O)=O)ccc1Nc1nccc(-c2cc(C#N)c3c(c2)[C@@](C)(CO)CN3)n1 yielded IC50 of 10.2

CN(C)C(=O)Cc1ccc(Cl)cc1Nc1nccc(-c2cc(C#N)c3c(c2)C(C)(CO)CN3)n1 (stereo not shown) yielded IC50 of 9.8

CN1CCC(Oc2ccc(Cl)cc2Nc2nccc(-c3cc(C#N)c4c(c3)C(C)(C)CN4)n2)CC1 yielded IC50 of 15.2

Cc1cc(F)c(C(=O)NC2CCOC2)cc1Nc1nccc(-c2cc(C#N)c3c(c2)[C@@](C)(CO)CN3)n1 (single isomer, unassigned) [Compound 168] yielded IC50 of 10.7

CCN1CCC(c2ccc(Nc3nccc(-c4cc(C#N)c5c(c4)C(C)(CO)CN5)n3)cc2Cl)CC1 (stereo not shown) yielded IC50 of 1.7

Cc1ccc(C#N)cc1Nc1nccc(-c2cc(C#N)c3c(c2)[C@@](C)(COC(=O)[C@H](C)N)CN3)n1 yielded IC50 of 11.2

[2H]C([2H])([2H])N1CCN(C(=O)c2cc(C#N)cc(Nc3nccc(-c4cc(C#N)c5c(c4)[C@@](C)(CO)CN5)n3)c2C)CC1 yielded IC50 of 6.2

Cc1c(Nc2nccc(-c3cc(C#N)c4c(c3)[C@@](C)(CO)CN4)n2)cc(C#N)cc1C(=O)O yielded IC50 of 2.8

Cc1cc(C2CCCN(C)C2)c(C#N)cc1Nc1nccc(-c2cc(C#N)c3c(c2)[C@@](C)(CO)CN3)n1 (single isomer, unassigned) [Compound 178] yielded IC50 of 2
